biological target: hTGR5 (Homo sapiens, UniProt Q8TDU6); experiment: TGR5/CRE Luciferase Assay (hTGR5); conditions: HEK 293 cells co-transfected with pCMV tag4b-TGR5h and pCRE TA-Luciferase; overnight incubation
Sequence (Q8TDU6 whole entry): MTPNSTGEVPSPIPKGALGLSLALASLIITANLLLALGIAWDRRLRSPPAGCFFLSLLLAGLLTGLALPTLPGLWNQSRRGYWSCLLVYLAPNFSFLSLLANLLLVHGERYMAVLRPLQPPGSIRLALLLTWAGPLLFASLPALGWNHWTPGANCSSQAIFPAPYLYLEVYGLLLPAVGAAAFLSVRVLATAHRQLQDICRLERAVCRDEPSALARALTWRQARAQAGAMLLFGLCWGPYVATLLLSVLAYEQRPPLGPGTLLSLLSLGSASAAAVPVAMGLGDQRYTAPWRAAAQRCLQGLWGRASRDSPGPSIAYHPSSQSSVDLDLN
readout kind: log10(EC50) (log10 of the value in nM)
All values: log10 EC50 [nM].

Some solved entries appear below for comparison.
COCCN1C=C(C(=O)NCc2ccccc2)C(c2ccc(Cl)cc2)CC1=O (stereo not drawn) [Compound 33] ... 3.81
COc1ccccc1COC(=O)C1=C(C)N(C[C@H]2CCCO2)C(=O)C[C@H]1c1ccc2nsnc2c1 (racemic) [Example 152] ... 1.48
CCC1=C(C(=O)OCc2ccccc2)C(c2ccc(Cl)cc2)CC(=O)N1C (stereo not drawn) [Compound 18] ... 3.15

Please examine the following record next.
Reported log10(EC50) of CC1=C(C(=O)OCc2ccccc2)C(c2ccccc2C(F)(F)F)CC(=O)N1 (stereo not drawn) [Compound 7] : 3.70
